test system: T98G; experiment: cells; type: functional, cell-based; settings: Homo sapiens;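 note: growth inhibition of T98G cells, read out by a cell viability assay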
Description: SANGER: Inhibition of human T98G cell growth in a cell viability assay.
This section presents compounds with their documented IC50 values.
Measured attribute: IC50

Smiles text	Value
C/C=C(/C)C(=O)O[C@H]1C(C)=C2[C@H]([C@@H]1OC(=O)CCCCCCC)[C@@](C)(OC(C)=O)C[C@H](OC(=O)CCC)[C@@]1(O)[C@H]2OC(=O)[C@@]1(C)O	0.741 nM
CO[C@@]12[C@H](COC(N)=O)C3=C(C(=O)C(C)=C(N)C3=O)N1C[C@@H]1N[C@@H]12	524 nM
CCNC(=O)c1noc(-c2cc(C(C)C)c(O)cc2O)c1-c1ccc(CN2CCOCC2)cc1	74.2 nM
Cn1cc(/C=C2\C(=O)Nc3cccnc32)c2ccccc21	> 2000 nM
O=c1cc(N2CCOCC2)oc2c(-c3cccc4c3sc3ccccc34)cccc12	> 2000 nM
C[C@]12O[C@H](C[C@]1(O)CO)n1c3ccccc3c3c4c(c5c6ccccc6n2c5c31)CNC4=O	327 nM
O=c1[nH]c2ccccc2n1C1CCN(Cc2ccc(-c3nc4cc5[nH]cnc5cc4nc3-c3ccccc3)cc2)CC1	> 2560 nM
CC(=O)c1c(C)c2cnc(Nc3ccc(N4CCNCC4)cn3)nc2n(C2CCCC2)c1=O	2010 nM
